Biological target: HLA-DRB1*01:01
Test: Inhibitory concentration to inhibit the binding of biotinylated rat myelin basic protein peptide (RMBP90-102) against DR1 allele of class II MHC for 20 min
ENDPOINT LABEL: IC50 (nM)

Example entries and their recorded answers appear below.
                           molecular_string  measurement_units  observed_result
0  CCOC(=O)N[C@H](CSCc1ccccc1)C(=O)N[C@H](C(=O)N[C@@H](C)C(=O)N[C@@H](CC(C)C)C(N)=O)C(C)C                 nM              270
1  CCOC(=O)N[C@H](Cc1ccc(Cl)cc1)C(=O)N[C@H](C(=O)N[C@@H](C)C(=O)N[C@@H](CC(C)C)C(N)=O)C(C)C                 nM               19
2  CCOC(=O)N[C@H](Cc1cccnc1)C(=O)N[C@H](C(=O)N[C@@H](C)C(=O)N[C@@H](CC(C)C)C(N)=O)C(C)C                 nM             5300
3  CCOC(=O)N[C@H](Cc1ccc(OC(C)=O)cc1)C(=O)N[C@H](C(=O)N[C@@H](C)C(=O)N[C@@H](CC(C)C)C(N)=O)C(C)C                 nM              240

a = CCOC(=O)N[C@H](Cc1ccc(OC)cc1)C(=O)N[C@H](C(=O)N[C@@H](C)C(=O)N[C@@H](CC(C)C)C(N)=O)C(C)C
b = CCOC(=O)N[C@H](CC(=O)c1ccccc1)C(=O)N[C@H](C(=O)N[C@@H](C)C(=O)N[C@@H](CC(C)C)C(N)=O)C(C)C
Request: When the recorded IC50 values are compared, which is smaller: that of a or that of b ? Bench note: the answer is the label of the chosen record.
Response: a
(a: 46 nM, b: 5700 nM)

FYI, the data here is from ChEMBL document CHEMBL1129861.
